# Test system: Candida albicans
# method.description: Antifungal activity against Candida albicans ATCC 200955 after 48 hrs by CLSI method
# Type: functional, organism-based
# measurement.context: ATCC 200955, 48 h
measured.property: IC50 (nM)
Your answer is read as nM, so omit the unit and give the number.

Data request: Query (compound): `CCCCCCCCCCCCC#CCCCCC(=O)O` ; field requested: IC50
Data returned: 900

Data request: # input compound: `CCCCCCCCCCCC#CCCCCC(=O)O` ; wanted: its IC50
Data returned: 1900

====

# Test system: Aspergillus fumigatus
# method.description: Antifungal activity against Aspergillus fumigatus ATCC 204305 after 48 h by CLSI method
# measurement.context: ATCC 204305, 48 h
measured.property: IC50 (µM)
Give the value in µM but do not write µM after it.

Data request: Hello, I am looking for reported IC50 with Aspergillus fumigatus for `CCCCCCCCCC#CCCCCC(=O)O` . Could you help?
Data returned: 9.4

Data request: Tell me reported IC50 for `CN(C/C=C/C#CC(C)(C)C)Cc1cccc2ccccc12` , tested with Aspergillus fumigatus.
Data returned: 1.1

Data request: Observed IC50 on Aspergillus fumigatus for `C[C@@H]1[C@H](O)[C@@H](C)/C=C/C=C/C=C/C=C/C=C/C=C/C=C/[C@H](O[C@@H]2O[C@H](C)[C@@H](O)[C@H](N)[C@@H]2O)C[C@@H]2O[C@](O)(C[C@@H](O)C[C@@H](O)[C@H](O)CC[C@@H](O)C[C@@H](O)CC(=O)O[C@H]1C)C[C@H](O)[C@H]2C(=O)O` , please.
Data returned: 1.2

Data request: Can you look up IC50 on Aspergillus fumigatus for CCCCCCCCCCCCCC#CCCCCC(=O)O [6-ICOSYNOIC ACID] ?
Data returned: 32.3

Data request: Hello, I am looking for reported IC50 with Aspergillus fumigatus for CC(=O)N1CCN(c2ccc(OCC3COC(Cn4ccnc4)(c4ccc(Cl)cc4Cl)O3)cc2)CC1 (configuration not stated) . Could you help?
Data returned: 2.7

Data request: State its IC50 on Aspergillus fumigatus: `CCCCCCCCCCC#CCCCCC(=O)O`
Data returned: 36.6

Data request: Which IC50 is reported with Aspergillus fumigatus for this entry: `CCCCCC#CCC#CCC#CCC#CCCCC(=O)O` ?
Data returned: 10
